Test system: pigweed (Amaranthus retroflexus)
Assay: Test C pre-/postemergence greenhouse test, plant response rating 0-100
Type: in vivo
Details: Postemergence, 500 g ai/ha; scale 0 to 100
Quantity measured: Plant response rating, Pigweed
I only need the number, thanks.

Fc1cccc(NN=C(c2ccccc2)c2c[nH]nc2-c2cc(Cl)cc(Cl)c2)c1    100

Could you share which Plant response rating, Pigweed value was measured for `Cn1cc(C(=O)c2ccccc2)c(-c2cc(Br)cc(Br)c2)n1` ?
90

Can you check `O=Cn1cc(C(=O)c2ccccc2)c(-c2cc(Cl)cc(Cl)c2)n1` next?
100

Can you check `CCn1cc(C(=O)c2cccs2)c(-c2cc(Cl)cc(Cl)c2)n1` next?
100

* * *

Test system: johnsongrass (Sorghum halepense)
Assay: Test C pre-/postemergence greenhouse test, plant response rating 0-100
Format: in vivo
Conditions: Postemergence, 125 g ai/ha
Quantity measured: Plant response rating (0 to 100), Johnsongrass
I only need the number, thanks.

C=CCn1cc(C(=O)c2ccccc2)c(-c2cc(Cl)cc(Cl)c2)n1    5
O=C(c1ccccc1)c1cn(S(=O)(=O)CC(F)(F)F)nc1-c1cc(Cl)cc(Cl)c1    0
Cn1cc(C(=O)c2ccccc2)c(-c2cc(Br)cc(Br)c2)n1    0

Turning to the following compound.
Could you share which Plant response rating (0 to 100), Johnsongrass value was measured for `Fc1cccc(NN=C(c2ccccc2)c2c[nH]nc2-c2cc(Cl)cc(Cl)c2)c1` ?
25

* * *

Test system: palmer pigweed (Amaranthus palmeri)
Test: Test E pre-/postemergence greenhouse test, plant response rating 0-100
Assay type: in vivo
Details: Postemergence, 62 g ai/ha; scale 0 to 100
Reported values of Plant response rating, Pigweed, Palmer for individual entries
I only need the number, thanks.

// known answers, use as guide
CCn1cc(C(=O)c2cccs2)c(-c2cc(Cl)cc(Cl)c2)n1    90
O=Cn1cc(C(=O)c2ccccc2)c(-c2cc(Cl)cc(Cl)c2)n1    70
ON=C(c1ccccc1)c1c[nH]nc1-c1cc(Cl)cc(Cl)c1    75

Turning to the following compound.
Recorded Plant response rating, Pigweed, Palmer for `O=C(c1ccccc1)c1cn(S(=O)(=O)CC(F)(F)F)nc1-c1cc(Cl)cc(Cl)c1` with palmer pigweed (Amaranthus palmeri), please?
50

* * *

Tested on: palmer pigweed (Amaranthus palmeri)
Assay: Test E pre-/postemergence greenhouse test, plant response rating 0-100
Type: in vivo
Settings: Amaranthus palmeri, post-emergence; Postemergence, 31 g ai/ha; scale 0 to 100
Quantity measured: pest or weed control at 31 g/ha

// known answers, use as guide
CCOC(OCC)(c1ccccc1)c1c[nH]nc1-c1cc(Cl)cc(Cl)c1    80%
Clc1cc(Cl)cc(-c2n[nH]cc2C(=NN2CCCC2)c2ccccc2)c1    40%
Cn1cc(C(=O)c2ccccc2)c(-c2cc(Cl)cc(Cl)c2)n1    40%

Turning to the following compound.
Could you share which pest or weed control at 31 g/ha value was measured for `COCC(=O)n1cc(C(=O)c2ccccc2)c(-c2cc(Cl)cc(Cl)c2)n1` ?
70%

* * *

System: waterhemp (common waterhemp, Amaranthus rudis)
Assay: Test E pre-/postemergence greenhouse test, plant response rating 0-100
Type: in vivo
Details: Postemergence, 250 g ai/ha; scale 0 to 100
Description: […] Treated plants and controls were maintained in a greenhouse for 14 to 21 days, after which time all species were compared to controls and visually evaluated. […]
Reported values of Plant response rating, Waterhemp for individual entries
I only need the number, thanks.

// known answers, use as guide
O=C(c1ccccc1)c1cn(S(=O)(=O)CCl)nc1-c1cc(Cl)cc(Cl)c1    98
ON=C(c1ccccc1)c1c[nH]nc1-c1cc(Cl)cc(Cl)c1    100
O=Cn1cc(C(=O)c2ccccc2)c(-c2cc(Cl)cc(Cl)c2)n1    90
CCn1cc(C(=O)c2cccs2)c(-c2cc(Cl)cc(Cl)c2)n1    90

Turning to the following compound.
Could you share which Plant response rating, Waterhemp value was measured for `Cn1cc(C(=O)c2cccs2)c(-c2cc(Cl)cc(Cl)c2)n1` ?
90

Provenance of the data: patent US10167262B2
